Data provenance is PubChem BioAssay (NCI).

Test system: T-47D breast
test summary: NCI tumour cell line growth inhibition, 48 h
Listing of entries alongside the reported TGI.

{"compound": "COc1cc2ncn(-c3cc(O[C@@H](C)c4ccccc4Cl)c(C(N)=O)s3)c2cc1OC", "TGI": "7.09 µM"}
{"compound": "C=C1C(=O)OC2C1CCC(C)C1C=CC(=O)C12C (centres undefined)", "TGI": "4.88 µM"}
{"compound": "C/C(=N\\n1c(Cc2ccccc2)n[nH]c1=O)c1ccccc1", "TGI": "> 100 µM"}
{"compound": "CCC(C(=O)C(=O)C(CC)P1(=O)OC(C)(C)CN1C(C)(C)C)P1(=O)OC(C)(C)CN1C(C)(C)C (centres undefined)", "TGI": "> 100 µM"}
{"compound": "CC(=C/C=C/C=C(C)\\C=C\\C=C(\\C)C(=O)O)/C=C/C=C(/C)C(=O)O", "TGI": "> 100 µM"}

Ask | // query TGI value for entry COc1ccc(S(=O)(=O)NC(CCC(=O)NN)C(=O)NN)cc1 (centres undefined)
Reply | > 100 µM

Ask | Another compound to look at: C=C(C)[C@@H]1CC[C@]2(C(=O)O)CC[C@]3(C)[C@H](CC[C@@H]4[C@@]5(C)CCC(NC(=O)c6cccc(OC(C)=O)c6OC(C)=O)C(C)(C)[C@@H]5CC[C@]43C)[C@@H]12 (some centres undefined)
Reply | > 100 µM

Ask | Same read-out for O=C(O)c1ccc(Oc2nccc(-c3c(-c4ccc(F)cc4)ncn3C3CCNCC3)n2)cc1 ?
Reply | > 25 µM

Ask | How about Cc1ccc(NC2=C(Cl)C(=O)N(Cc3ccc(Cl)cc3)C2=O)cc1O ?
Reply | 42.6 µM

Ask | How about COC(=O)c1cc2c3ccccc3n3c(=O)c4cc5ccccc5nc4c(n1)c23 ?
Reply | > 100 µM
